Attribute: melting point

See these solved cases before continuing.
Fc1ccc(OCCCCCN2CCN(c3nccs3)CC2)cc1 42 to 44 °C
COC(=O)c1sccc1S(=O)(=O)NC(=O)Nc1nc(C)nc(C)n1 158 to 178 °C

Shift focus to the following entry.
Consider `Cn1c(=O)nc(-c2ccccc2F)c2c3c(sc21)CCCC3` . Its measured melting point is 221 to 222 °C

----------
Attribute: melting point

See these solved cases before continuing.
Compound	Assay Value
Oc1ccnc2ccc3nc[nH]c3c12	366 to 368 °C
CCCCCCCNC(=O)Nc1ccccc1C(=O)NC1CCN(C(c2ccccc2)c2ccccc2)CC1	182 °C
CCCC(NS(=O)(=O)c1ccccc1)P(=O)(Oc1ccccc1)Oc1ccccc1 (centres undefined)	173 to 175 °C

Shift focus to the following entry.
Consider `CCc1ccc(C=Nc2ccc(C#N)cc2)cc1` . Its measured melting point is 76.2 to 77 °C

----------
Attribute: melting point

Compound	Assay Value
C=C(C=O)c1ccc(Cl)cc1[N+](=O)[O-]	87 to 88 °C

Consider `Nc1nc(-c2cccc(F)c2)nc2nc(-c3ccco3)nn12` . Its measured melting point is > 300 °C

Consider `Cc1cc(Cl)ccc1N1CCC(=O)N(C)C1=O` . Its measured melting point is 120 to 127 °C

Consider O=C(O)C1c2ccccc2OCc2ncccc21 (stereo unspecified) . Its measured melting point is 139 to 140 °C

Consider `COc1cc2c(Nc3ccc(Sc4nccn4C)c(Cl)c3)c(C#N)cnc2cc1N1CCN(C2CCN(C)CC2)CC1` . Its measured melting point is 220 to 226 °C

----------
Attribute: melting point

See these solved cases before continuing.
Compound	melting point
COc1cc(N)c(Cl)cc1C(=O)NCC1CCN(CCC(=O)c2ccc(O)cc2)CC1	191 to 193 °C
COC(=O)C1=C(C)NC(C)=C(C(=O)OCC2CCCO2)C1c1cccc(O)c1 (stereo not given)	170 to 172 °C
O=c1[nH]c2ccccc2n1CCOC1CCCCO1 (stereo not given)	115 °C
Cc1[nH]c(-c2ccccc2)c2nc(-c3ccccc3)[nH]c(=O)c12	345 to 348 °C
CCOC(=O)c1c(Cl)nc2cc(F)c(C)cc2c1CCl	> 250 °C

Consider Cc1occc1S(=O)(=O)C(C)(Cc1ccccc1)C(=O)NO (stereo not given) . Its measured melting point is 68 to 70 °C

Consider `COc1ccc(CC(=O)c2c(O)c3cccnc3n(-c3ccccc3)c2=O)cc1` . Its measured melting point is 190 to 192 °C

----------
Measurement Type: melting point

Molecule	melting point
Cc1nc2c3c(ccc2n1C)C(O)C(OC(=O)C(C)(C)C)C(c1ccccc1)O3 (stereo unspecified)	148 °C
CCc1c(C)[nH]c(=O)c(I)c1Oc1cc(I)cc(CC#N)c1	220 °C
COC(=O)c1ccccc1Nc1cccc(C(C)NO)c1C (stereo unspecified)	114 to 116 °C

Shift focus to the following entry.
Consider `CSc1nnc(-c2cc(C(C)(C)C)c(O)c(C(C)(C)C)c2)s1` . Its measured melting point is 122 °C

----------
Measurement Type: melting point

See these solved cases before continuing.
Compound	Measurement Type	Assay Value
C[C@@H]1[C@@H](NC(=O)OCc2ccccc2)CN1S(=O)(=O)O	melting point	55 to 64 °C
CCn1cc(C(=O)O)c(=O)c2cc(F)c(N3CCNC(c4sc5ccc(Cl)cc5c4C)C3)cc21 (centres undefined)	melting point	300 to 305 °C
CC(C)(C)C(=O)Oc1cc(OS(=O)(=O)C(F)(F)F)cc2oc(-c3ccccc3)cc(=O)c12	melting point	126 to 128 °C

Shift focus to the following entry.
Consider `O=C(Nc1c[nH]nc1C(=O)NCC(F)(F)F)c1ccccc1` . Its measured melting point is 203 to 206 °C

----------
Measurement Type: melting point

Cc1cc(C(=O)O)n(-c2ccc(C=Cc3ccccc3)c(C#N)c2)n1 226 °C
Ic1ccc(Cc2cc(I)c(Cc3ccc(I)cc3)cc2I)cc1 210 to 213 °C
O=C(Nc1ccc(-n2nc(C(F)(F)F)cc2C(F)(F)F)cc1)c1cc(F)c(Cl)cc1F 160 to 162 °C

Consider `CCOc1ccc(F)c(N=Cc2cnc(SC)nc2NC2CCCC2)c1F` . Its measured melting point is 136 to 141 °C

Consider `COc1ccc2c(c1)c(=O)c(S(=O)(=O)N(C)C)cn2C` . Its measured melting point is 199 to 201 °C

Consider `CN1C(=N)N(C)C(=Cc2c[nH]c3ccccc23)C1=O` . Its measured melting point is 232 to 233 °C

----------
Measurement Type: melting point

See these solved cases before continuing.
Compound	melting point
CCOC(=O)C1=C(C)NC(C)=C(C(=O)OCC)C1c1cc(Cl)ccc1Cl	166 to 168 °C
CCCNC(=O)N1CCC(O)(Cc2c3c(nn2CC)c(N)nc2ccccc23)CC1	208 to 210 °C
COc1ccc(C(=O)Nc2ccc3c(c2)CCCC3=O)cc1	163 to 166 °C

Shift focus to the following entry.
Consider CC(C)CC(S)C(=O)NC(Cc1ccc(Br)nc1)C(=O)NC(Cc1ccc(-c2cccs2)nc1)C(=O)O (stereo unspecified) . Its measured melting point is 194 to 195 °C

----------
Measurement Type: melting point (°C)

Smiles Text	melting point [°C]
COc1ccc(NC(=O)c2ccc(OC)c3oc4ccc(NC(C)=O)cc4c23)cc1	285
CC(C)(C)Sc1c(CC(C)(C)C(=O)O)n(Cc2ccc(Cl)cc2)c2ccc(OCc3cc4ccccc4cn3)cc12	228

----------
Attribute: melting point

See these solved cases before continuing.
Compound	Assay Value
N#CCCNNC(=O)c1ccc(OCc2ccccc2)cc1	136 °C
CN(C(=O)NN1CC=CCC1)c1ccccc1	99 to 99.5 °C
c1ccc(Nc2nc3ccccc3n3cc(-c4ccccc4)cc23)cc1	172 °C

Consider `CC(C)=Nc1c(-c2ccccc2)[nH]c(C)c1C(N)=O` . Its measured melting point is 221 to 223 °C

Consider `COC(=O)c1cc(Cl)c(OC)c(Cl)c1N` . Its measured melting point is 72 to 73 °C

Consider CC1NC(=O)NN=C1c1ccc2c(c1)C(C)(C)C(=O)N2 (stereo not drawn) . Its measured melting point is 292 °C

Consider `COC(=O)COc1ccc2cc(-c3csc(Cc4c(Cl)cccc4Cl)n3)ccc2c1` . Its measured melting point is 174 to 177 °C

Consider CC(=O)C1COc2ccccc2C1=O (stereo not drawn) . Its measured melting point is 81 to 83 °C

Consider OCCC1(c2ccc(Cl)c(Cl)c2)CCNC1 (stereo not drawn) . Its measured melting point is 91 to 94 °C

Consider `CCCCCCCCCN1C(=O)N(c2ccc([N+](=O)[O-])c(C(F)(F)F)c2)C(=O)C1(C)C` . Its measured melting point is 63 °C

Consider COc1ccc2c(c1)CCC1C2CCC2(C)C(NCCc3cccn3C)CCC12 (stereo not drawn) . Its measured melting point is 141 to 143 °C

Consider `CCOC(=O)C(=O)Nc1ccc(OC)c(NC(=O)C(=O)OCC)c1` . Its measured melting point is 140 to 145 °C

Consider `Cc1ccc(-c2ccc(S(C)(=O)=O)cc2)n1-c1ccc(-c2ccco2)cc1` . Its measured melting point is 145 to 147 °C

----------
Attribute: melting point

Molecule	melting point
CCCOc1ccc(-c2ccc3c(c2)C=C(C(=O)Nc2ccc(CN(C)C4CCOCC4)cc2)CCN3C)cc1	149 to 151 °C
O=[N+]([O-])C=C1SCCN1Cc1ccc(Cl)nc1	177 to 179 °C
CC(O)C(=O)NCCNC(=O)C(C)O (stereo not drawn)	188 °C

Consider `Clc1cc(Cl)c2cccc3c2c1N=C3NCCCCCCCCCCn1ccnc1` . Its measured melting point is 129 to 131 °C

----------
Measurement Type: melting point

See these solved cases before continuing.
Compound	melting point
CC(=O)c1ccc(-n2c(CCl)nc3ccccc3c2=O)cc1	180 to 181 °C
COc1cc(CC(=O)NCCCc2ccc(C)c(C)c2)ccc1OCCN1CCNCC1	92 to 94 °C
Cn1cnc(COc2nn3c(-c4ccccc4)nnc3cc2-c2ccccc2)n1	229 to 233 °C
COc1cc2c3cc(OC)c(OC)cc3n(S(=O)(=O)c3ccccc3)c2cc1OC	212 to 213 °C
COc1ccc(S(C)(=O)=O)cn1	85 to 86.5 °C

Consider `Cn1c(=O)c(Cl)nc2ccccc21` . Its measured melting point is 124 to 130 °C

Consider `CCc1cc2nccc(-c3cccnc3)n2n1` . Its measured melting point is 103 to 104 °C

Consider `CCCCCCCCCCCCCCCCCCOc1cc(OCc2ccccc2)cc(C(=O)OC)c1` . Its measured melting point is 62 to 64 °C

Consider CCCCCCCCCCCCCCCCSCC(CNS(=O)(=O)CCCCl)OC(=O)NC (stereo not drawn) . Its measured melting point is 84.5 to 85.5 °C

Consider `COc1ccc(C(=O)C=Cc2cccc([N+](=O)[O-])c2)c(OC)c1OC` . Its measured melting point is 130 to 131 °C

Consider CC(Oc1cccc(C=Cc2ccc3ccc(Cl)cc3n2)c1)C(N)=O (single isomer, unassigned; (-)) . Its measured melting point is 195 to 197 °C

Consider `CN1CCN(c2cccc3ccc(NC(N)=S)cc23)CC1` . Its measured melting point is 194 to 195 °C

Consider `c1ccc2c(c1)CCC21CCN(CCCCN2CCC3(CCc4ccccc43)CC2)CC1` . Its measured melting point is 113 to 115 °C

Consider `COc1ccc(N2CCSC2=N)c([N+](=O)[O-])c1` . Its measured melting point is 156 °C

Consider CNc1noc(C(C)c2cccc(C(=O)c3ccccc3)c2)n1 (stereo not drawn) . Its measured melting point is 100 to 101 °C

Consider CC(=O)c1ccc(NS(C)(=O)=O)c(Oc2ccccc2S(C)=O)c1 (stereo not drawn) . Its measured melting point is 113 to 116 °C

Consider COc1ccc(C)cc1NC(=O)Nc1ccc(N2CCN(C(=O)Nc3cc(OCC(O)CO)ccc3Cl)CC2)cc1 (stereo not drawn) . Its measured melting point is 114 to 118 °C

Consider `C=CCN1CC(=O)C(C#N)=C1N` . Its measured melting point is 275 to 278 °C
